FYI, the data here is from paper PMC7033594.

Target: full-length AtTSPO (Arabidopsis thaliana, UniProt O82245)
Assay: Microscale thermophoresis, PI
Assay type: binding
REPORTED METRIC: Kd (mM)
Report as a plain number; the unit mM is understood.

For full-length AtTSPO (Arabidopsis thaliana, UniProt O82245), provide Kd of CCCCCCCC/C=C\CCCCCCCC(=O)OC[C@H](COP(=O)(O)O[C@@H]1[C@H](O)[C@H](O)[C@@H](OP(=O)(O)O)[C@H](OP(=O)(O)O)[C@H]1O)OC(=O)CCCCCCC/C=C\CCCCCCCC [PI(4,5)P2] please.
2.3

----------
Molecular target: AtTSPO^Nter (Arabidopsis thaliana)
Sequence (O82245 1-49): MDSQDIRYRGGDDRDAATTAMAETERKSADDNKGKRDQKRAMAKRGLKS
REPORTED METRIC: Kd

Any idea what Kd was measured for CCCCCCCC/C=C\CCCCCCCC(=O)OC[C@H](COP(=O)(O)O[C@@H]1[C@H](O)[C@H](O)[C@@H](OP(=O)(O)O)[C@H](OP(=O)(O)O)[C@H]1O)OC(=O)CCCCCCC/C=C\CCCCCCCC [PI(4,5)P2] ?
~150 µM
